- TEST PROTOCOL: Solubility of the compounds: visual homogeneity of mixture in aqueous buffer pH 7
- Format: physicochemical
- Set-up: key: −: heterogeneous mixture; +: homogeneous mixture
- SETTINGS: 100 mg compound in 5 ml aqueous buffer pH = 7, room temperature, after 1 week
RECORDED METRIC: Visual homogeneity After 1 week

| MOLECULE | RESULT |
| --- | --- |
| C=C(C)C(=O)OCCCNC(=O)C(=O)NCCCOC(=O)C(=C)C | − |
| C=CC(=O)NCCOC(=O)C(=O)OCCNC(=O)C=C | + |
| C=CC(=O)OCCn1c(=O)n(CCOC(=O)C=C)c(=O)n(CCOC(=O)C=C)c1=O | − |
| C=CC(=O)OCCCCOC(=C)C(=O)OCCCCOC(=O)C=C | + |
| C=CC(=O)OCCOCCOc1ccc(C(C)(C)c2ccc(OCCOC(=O)C=C)cc2)cc1 | − |
| C=C(C)C(=O)OCCOC(=O)NCCC(C)CC(C)(C)CNC(=O)OCCOC(=O)C(=C)C (stereo not shown) | − |

Input: Which Visual homogeneity After 1 week value belongs to `C=C(C)C(=O)OCCOC(=O)C(=O)OCCOC(=O)C(=C)C` ?
Output: +
